# test-name: NF-kB promoter reporter activators, neuronal cells, dose response, cell-based, SH-SY5Y, luciferase (AID 1241)
# condition-details: fold induction
Calls of active or inactive are those of the source. The rule behind the calls is not given here.
Classes used: Yes (active), No (inactive)

compound: Cc1ccc(C(=O)/C=C/Nc2cccc(O)c2)cc1
label-class: Yes
--
compound: CCOC(=O)c1cnc(Nc2nc3ccccc3o2)nc1CSC(=S)N(CC)CC
label-class: Yes
--
compound: Cc1ccnc(NC(=O)/C=C/c2ccccc2[N+](=O)[O-])c1
label-class: Yes
--
compound: Clc1ccccc1-c1nnc(-c2ccc3c(c2)OCO3)o1
label-class: Yes
--
compound: O=C(c1ccc(Cl)cc1)c1coc2ccc(O)cc12
label-class: Yes
--
compound: COc1ccc(/C=C/c2nc(-c3ccccc3O)n[nH]2)cc1
label-class: Yes
--
compound: O=C(/C=C/Nc1cccc(O)c1)c1ccccc1
label-class: Yes
--
compound: COc1cccc(/C=C/C(=O)c2ccc[nH]2)c1
label-class: Yes
--
compound: C=CCNc1oc(/C=C/c2ccccc2)nc1C#N
label-class: Yes
--
compound: COc1ccc(-c2cc(=O)c3ccccc3s2)cc1
label-class: Yes
--
compound: COc1ccc(/C=N/N=C(\N)c2nonc2N)cc1
label-class: Yes
--
compound: c1ccc(-c2cnc(-c3ccccc3)nc2)cc1
label-class: Yes
--
compound: Cc1ccc2nc(-c3sc4nc(C)ccc4c3N)[nH]c2c1
label-class: Yes
--
compound: COc1ccc(/C=C/c2nc3ccccc3n2Cc2ccccc2OC)cc1
label-class: Yes
--
compound: O=C(N/N=C/C(Br)=C/c1ccccc1)c1n[nH]c2c1CCC2
label-class: Yes
--
compound: COC(=O)c1sc(NC(=O)c2cc3c(s2)CCCC3)nc1C
label-class: Yes
--
compound: Cc1ccc(Nc2nc(-c3ccc(O)c(O)c3)cs2)nc1
label-class: Yes
--
compound: N#C/C(=N\Nc1ccc(F)cc1)C(=N)N1CCCCCC1
label-class: Yes
--
compound: O=C(Nc1ccc(N2CCCCC2)cc1)c1ccccc1
label-class: Yes
--
compound: CN(C)c1ccc(NC(=O)CCCc2ccccc2)cc1
label-class: Yes
--
compound: COc1ccc(-c2cn3cccc(C)c3n2)cc1F
label-class: Yes
--
compound: Cc1ccsc1C(=O)N/N=C/c1ccc2c(c1)OCO2
label-class: Yes
--
compound: N#C/C(=N\Nc1ccc(Cl)cc1)C(=N)N1CCCCC1
label-class: Yes
--
compound: CCN(CC)c1ccc(NC(=O)c2ccc(Br)o2)cc1
label-class: Yes
--
compound: Cc1cccc(Nc2nc(-c3cccs3)cs2)n1
label-class: Yes
--
compound: Nc1cccc(-c2cn3cc(C(F)(F)F)cc(Cl)c3n2)c1
label-class: Yes
--
compound: Nc1c(C(=O)Nc2ccc(Cl)cc2)oc2ccccc12
label-class: Yes
--
compound: COc1ccc(C(=O)N=c2sc3ccccc3n2C)cc1
label-class: Yes
--
compound: COCCNc1nc(-c2cc3ccccc3o2)cs1
label-class: Yes
--
compound: O=c1c2ccccc2cnn1-c1ccc(Br)cc1
label-class: Yes
--
compound: COc1ccc(Cn2c(C3CC3)nc3ccc(NC(=O)C4CC4)cc3c2=O)cc1
label-class: Yes
--
compound: COc1ccc2[nH]c3c(c2c1)CCn1c-3nc2ccccc2c1=O
label-class: Yes
--
compound: Cc1ccc(C(=O)Nc2ccc3c(c2)CCC3)o1
label-class: No
--
compound: Cc1ccc(/C=C2\Sc3ccccc3C2=O)s1
label-class: Yes
--
compound: CN(C)S(=O)(=O)Oc1cccc(C(=O)Nc2ccc(Cl)cc2)c1
label-class: Yes
--
compound: COc1ccc(C(=O)/C=C2\Sc3ccccc3N2C)cc1
label-class: Yes
--
compound: CCc1ccc(C2=NN(S(C)(=O)=O)C(c3cccs3)C2)cc1 (stereo unspecified)
label-class: Yes
--
compound: O=Cc1cn(-c2ccccc2)nc1-c1ccc2c(c1)OCCO2
label-class: Yes
--
compound: c1ccc(N2CCN(c3cnc4ccccc4n3)CC2)cc1
label-class: Yes
--
compound: COc1ccc(/C=C/c2nc3ccccc3n2Cc2ccc(OC)c(OC)c2)cc1
label-class: Yes
--
compound: COc1ccc(Nc2nc3ccccc3s2)cc1
label-class: Yes
--
compound: Cc1c(C(=O)NC2=NCCS2)oc2ccccc12
label-class: Yes
--
compound: CC(C)CC(=O)N/C(N)=N/c1nc2ccccc2s1
label-class: Yes
--
compound: CC(=O)CSc1nc2cc3c(cc2cc1C#N)OCCO3
label-class: Yes
--
compound: COc1ccc2nc(NC(=S)N(C)C)sc2c1
label-class: Yes
--
compound: Cc1ccccc1OCC(=O)Nc1cccc(C(=O)O)c1
label-class: Yes
--
compound: O=C(Nc1ccc(N2CCCC2)c(Cl)c1)c1ccco1
label-class: Yes
--
compound: O=C(Nc1ccc2c(c1)OCO2)c1ccc(Br)s1
label-class: Yes
--
compound: CCOC(=O)c1c(N)sc(C(=O)Nc2ccccc2F)c1C
label-class: Yes
--
compound: Cc1csc(SCc2nnc(-c3ccccc3Br)o2)n1
label-class: Yes
--
compound: O=C(O)c1ccc(/C=N/Nc2ccc(F)cc2F)cc1
label-class: Yes

---

# test-name: NF-kB promoter reporter activators, neuronal cells, dose response, cell-based, SH-SY5Y, luciferase (AID 1241)
# condition-details: fold induction
pEC50: −log10 of the molar value.
Known pEC50 of a selection of compounds

smiles-notation: Nc1nc2ccc(-c3nc4ccccc4o3)cc2s1
pEC50: 5.86

smiles-notation: O=C(Nc1nc2c(s1)CCCC2)c1ccc(Br)o1
pEC50: 5.89

smiles-notation: C(=N\Nc1nc(-c2ccccc2)cs1)/c1cccs1
pEC50: 5.22

smiles-notation: O=C(c1cnn(-c2ccc(Cl)cc2)c1)c1ccccc1O
pEC50: 5.76

smiles-notation: Cc1ccc(C)c(NC(=O)c2ccc3ccccc3n2)c1
pEC50: 5.72

smiles-notation: O=C1C(c2cc(=O)c3ccccc3[nH]2)=C(O)c2ccccc21
pEC50: 5.30

smiles-notation: CCn1c(/C=C/c2ccccc2)nc2ccccc21
pEC50: 5.80

smiles-notation: O=C(COc1ccc2ccccc2c1)Nc1nccs1
pEC50: 6.11

smiles-notation: c1ccc(Nc2nc(-c3cccs3)cs2)nc1
pEC50: 6.18

smiles-notation: COc1ccc(-c2cc(=O)c3cc(OC)ccc3o2)cc1
pEC50: 5.41

smiles-notation: O=C(CSc1nnnn1-c1ccccc1)Nc1nsc(-c2ccccc2)n1
pEC50: 4.85

smiles-notation: Cc1ccc2nc(NC(=S)NC(=O)c3cccs3)sc2c1
pEC50: 5.65

---

# test-name: NF-kB promoter reporter activators, neuronal cells, dose response, cell-based, SH-SY5Y, luciferase (AID 1241)
# condition-details: fold induction
pEC50: −log10 of the molar value.

smiles-notation: O=C1/C(=C/c2cccs2)CCc2ccccc21
pEC50: 5.38
//
smiles-notation: O=C(/C=C\Nc1ccc2c(c1)OCO2)c1ccc2c(c1)OCO2
pEC50: 6.00
//
smiles-notation: COc1ccc(-c2cn3cc(C)ccc3n2)cc1Br
pEC50: 6.49
//
smiles-notation: O=C(O)c1cccc(N/N=C/c2ccc(-c3ccccc3)cc2)c1
pEC50: 5.75
//
smiles-notation: CC(C)Oc1ccc(C(=O)NC2=NCCS2)cc1
pEC50: 5.73
//
smiles-notation: COc1ccc(C(=O)/C=C/c2cn(CN3CCN(C)CC3)c3ccccc23)cc1
pEC50: 5.99
//
smiles-notation: COC(=O)CSc1nc2cc(C)ccc2cc1C#N
pEC50: 5.18
//
smiles-notation: Oc1ccccc1-c1cc(-c2ccccc2Cl)[nH]n1
pEC50: 5.91
//
smiles-notation: O=C(NCCCn1ccnc1)c1cc(-c2cccs2)on1
pEC50: 4.62
//
smiles-notation: Cc1ccc2nc(NC(=O)c3cccs3)sc2c1
pEC50: 6.41
//
smiles-notation: CCc1ccc(-c2cc(N)n(-c3ccccc3)n2)cc1
pEC50: 4.79
//
smiles-notation: COc1ccc(-c2cc(-c3ccccc3O)[nH]n2)cc1OC
pEC50: 5.61

---

Known pEC50 of a selection of molecules
# test-name: NF-kB promoter reporter activators, neuronal cells, dose response, cell-based, SH-SY5Y, luciferase (AID 1241)
# condition-details: fold induction
pEC50: −log10 of the molar value.

molecule: O=C(NCc1ccco1)c1ccc([N+](=O)[O-])o1
pEC50: 5.16
//
molecule: C/C(=N\NC(=O)c1ccc(Br)cc1)c1ccccc1
pEC50: 4.63
//
molecule: COc1ccc(C(=O)Nc2ccc3c(c2)OCCO3)cc1
pEC50: 5.87
//
molecule: Cc1ccc(Nc2nc(C3CC3)cs2)cc1
pEC50: 5.74
//
molecule: O=c1[nH]c(/C=C2\C=Nc3ccccc32)c(O)n1Cc1ccccc1F
pEC50: 5.60
//
molecule: CN(C)c1ccc(-c2nnc(-c3cccs3)o2)cc1
pEC50: 5.65
//
molecule: COc1ccc(C(=O)/C=C/Nc2ccc(C)cn2)cc1OC
pEC50: 5.19
//
molecule: NC(=O)c1ccccc1N/C=C/C(=O)c1ccc(Cl)cc1Cl
pEC50: 5.90
//
molecule: Cn1cccc1C(=O)C(=O)Nc1ccccc1
pEC50: 4.60
//
molecule: N/C(=N\OC(=O)c1cc(Br)ccc1Cl)c1ccccn1
pEC50: 5.65
//
molecule: COc1ccc(Cn2c(/C=C/c3ccccc3)nc3ccccc32)cc1
pEC50: 5.31
//
molecule: COc1ccccc1N1CCN(c2ccc(-c3ccccc3)nn2)CC1
pEC50: 6.14
//
molecule: N#C/C(=N/Nc1ccc([N+](=O)[O-])cc1)C(=N)N1CCCCC1
pEC50: 5.58
//
molecule: COc1ccc(-c2ccc3ccccc3n2)cc1
pEC50: 6.19
//
molecule: Cc1ccc2nc(NC(=O)c3ccc(Cl)s3)sc2c1
pEC50: 5.97
//
molecule: Nc1nn(-c2ccccc2)c(N)c1N=Nc1ccccc1F
pEC50: 6.00
//
molecule: Cn1/c(=N/N=C/c2ccccn2)sc2ccccc21
pEC50: 5.20
//
molecule: Oc1c(-c2cc(-c3ccco3)[nH]n2)ccc2ccccc12
pEC50: 5.25
//
molecule: COc1cccc(N/C=C/C(=O)c2ccc(Cl)cc2)c1
pEC50: 6.19
//
molecule: CCN(CC)c1ccc(/C=N/NC(=O)c2ccco2)cc1
pEC50: 5.37
//
molecule: CCOc1ccc(-c2nc(-c3cccnc3)no2)cc1
pEC50: 6.04
//
molecule: Cc1nc(NC(=O)c2csc3ccccc23)sc1C
pEC50: 6.03
//
molecule: CCc1sc(C(=O)N2CCc3ccccc32)cc1C
pEC50: 5.77
//
molecule: O=C(Nc1ccc2c(c1)CCC2)c1cccs1
pEC50: 5.19
//
molecule: Cc1cccc(-n2ncc3c(NC4CCCCC4)ncnc32)c1
pEC50: 5.63
//
molecule: Cc1ccc(C(=O)C(C)OC(=O)c2ccccc2[N+](=O)[O-])cc1 (centres undefined)
pEC50: 5.04
//
molecule: COC(=O)CSc1nc2cc3c(cc2cc1C#N)OCO3
pEC50: 6.00
//
molecule: NC(=O)c1ccccc1N/C=C/C(=O)c1ccc(Cl)cc1
pEC50: 5.29
//
molecule: COc1ccc(-c2csc(-c3ccccc3)n2)c(OC)c1
pEC50: 5.17
//
molecule: Cc1ccc(C(=O)c2sc3nsc(C)c3c2N)cc1
pEC50: 5.70
//
molecule: COc1ccc(C(=O)NCCSc2ccccc2)cc1
pEC50: 6.02
//
molecule: Cc1nc(N)sc1N=Nc1ccc(Br)cc1
pEC50: 5.15
//
molecule: COc1ccc2cc(-c3cc(C(=O)O)c4ccccc4n3)ccc2c1
pEC50: 5.94
//
molecule: Fc1ccccc1SCc1nnc(-c2ccccc2Br)o1
pEC50: 6.09
//
molecule: O=C(NCc1cccnc1)c1ccc([N+](=O)[O-])o1
pEC50: 5.55
//
molecule: Cc1cc(N/C=C/C(=O)c2cccs2)ccc1F
pEC50: 5.65
//
molecule: COC(=O)Cc1ccc2sc(-c3ccccc3)nc2c1
pEC50: 6.15
//
molecule: Cc1ccc(C(=O)COC(=O)c2cccs2)cc1
pEC50: 5.61
//
molecule: COc1c(C)cccc1C(=O)Nc1ccc(N2CCOCC2)c(Cl)c1
pEC50: 4.87
//
molecule: Cc1ccc(-c2nc(-c3cccnc3)no2)cc1
pEC50: 5.88
//
molecule: O=C(Nc1nccs1)c1ccc(-c2ccc(Cl)cc2)o1
pEC50: 4.56
//
molecule: Cc1ccccc1C(=O)O/N=C1\CCS(=O)(=O)c2sccc21
pEC50: 5.41
//
molecule: Nc1ccc2nc(SCc3cccc(F)c3)sc2c1
pEC50: 5.43
//
molecule: CN(C)C(=S)Nc1nc2ccccc2s1
pEC50: 4.82
